experiment description: solvent given as SMILES
test context: in Cc1ccccc1
Each record here notes measured emission maximum.
Use nm as the unit, but write only the number.

Observe how each entry below is paired with its result.
N#CC(C#N)=C(c1ccc(N(c2ccccc2)c2ccccc2)cc1)c1ccc(N(c2ccccc2)c2ccccc2)cc1 | 439.48
CC(C)(C)c1ccc2c(c1)c1cc(C(C)(C)C)ccc1n2-c1ccc(C(=CC#N)c2ccc(-n3c4ccc(C(C)(C)C)cc4c4cc(C(C)(C)C)ccc43)cc2)cc1 | 450
c1ccc(-c2nc3c(ccc4[nH]ccc43)o2)cc1 | 390
CC(C)(C)c1ccc2c(c1)c1cc(C(C)(C)C)ccc1n2-c1ccc(S(=O)(=O)c2ccc(-n3c4ccc(C(C)(C)C)cc4c4cc(C(C)(C)C)ccc43)cn2)nc1 | 444.37
N#C/C(=N/Nc1ccc(C#N)cc1)c1nc(-c2ccccc2)cs1 | 490
COC(=O)c1ccc(C#Cc2ccc(N(C)C)cc2)cc1 | 381

Return reported emission maximum; argument: c1ccc2c(c1)Sc1ccccc1N2c1ccc2c(c1)C1(CCCC1)c1cc(N3c4ccccc4Sc4ccccc43)ccc1-2
491

Do the same for CCCCC(CC)CN1C(=O)c2cccc3c(C#Cc4ccc(N(c5ccccc5)c5ccc(C#Cc6ccc7c8c(cccc68)C(=O)N(CC(CC)CCCC)C7=O)cc5)cc4)ccc(c23)C1=O (stereo not given) please
514

Do the same for CC1=CC(C)=[N+]2C1=C(c1c3ccccc3c(C)c3ccccc13)c1c(C)cc(C)n1[B-]2(F)F please
517

Do the same for CCOC(=O)CN1C(=O)C2=C(c3ccc(C#N)cc3)N(CC(=O)OCC)C(=O)C2=C1c1ccc(C#N)cc1 please
558

Do the same for COc1ccc(C2=C(c3ccc(-c4ccccc4)cc3)C(c3ccccc3)=[N+]3C2=Nc2c(-c4ccc(OC)cc4)c(-c4ccc(-c5ccccc5)cc4)c(-c4ccccc4)n2[B-]3(F)F)cc1 please
716

Do the same for CC(C)CCC[C@@H](C)[C@H]1CC[C@H]2[C@@H]3CC=C4C[C@@H](OC(=O)Oc5cc(/C=C/C=C/c6ccc(N(C)C)cc6)ccc5[N+](=O)[O-])CC[C@]4(C)[C@H]3CC[C@]12C please
595

Do the same for O=C1c2ccccc2C2=Cc3ccc4ccccc4[n+]3[B-](F)(F)N12 please
474

Do the same for N#Cc1c(-n2c3ccc(Cl)cc3c3cc(Cl)ccc32)c(C#N)c(-n2c3ccc(Cl)cc3c3cc(Cl)ccc32)c(-n2c3ccc(Cl)cc3c3cc(Cl)ccc32)c1-n1c2ccc(Cl)cc2c2cc(Cl)ccc21 please
518

Do the same for N#Cc1nc2c3ccc(-c4ccc(N(c5ccccc5)c5ccccc5)cc4)cc3c3cc(-c4ccc(N(c5ccccc5)c5ccccc5)cc4)ccc3c2nc1C#N please
588
